- Test system: NCI-H226 lung
- Test Details: NCI tumour cell line growth inhibition, 48 h

- Compound String: "Cc1ccc2[nH]c3[nH]c(=O)[nH]c(=O)c3c2c1"
  TGI: "> 100 µM"
- Compound String: "CC(C)OP(=O)(OC(C)C)/C(=N/N)NNc1ccc([N+](=O)[O-])cc1"
  TGI: "> 100 µM"
- Compound String: "Cc1ccccc1N=Nc1c(O)[nH]c2ccccc12"
  TGI: "> 100 µM"
- Compound String: "Cc1ccc2c(c1)[nH]c(=S)n2C=C1C(=O)CC(C)(C)CC1=O"
  TGI: "> 100 µM"
- Compound String: "Clc1ccc(-c2nn3ncccc3c2-c2ccnc(Nc3ccccc3)n2)cc1"
  TGI: "> 25 µM"
- Compound String: "CN(C)CC(CO)(CN(C)C)CN(C)C"
  TGI: "> 100 µM"

---

Entries and their TGI
- Tested on: HOP-92 NSCLC
- Test Details: NCI tumour cell line growth inhibition, 48 h
Where a SMILES comes first, the peptide text is derived from it. [ ]: non-standard residue; d: D form. The star is where a group is joined. ξ: configuration not given here. NMeF = CN[C@@H](Cc1ccccc1)C(=O)O; ξNMeV = CNC(C(=O)O)C(C)C; Boc = CC(C)(C)OC(=O)*; OBn = c1ccc(CO*)cc1

- Compound: "CCC[CH2][Sn]([CH2]CCC)([O]C(=O)c1nccnc1N)[O]C(=O)c1nccnc1N"
  TGI: "2.43 µM"
- Compound: "CN1c2ccccc2S(=O)(=O)n2c(COc3ccc(Cl)cc3)nnc21"
  TGI: "63.2 µM"
- Compound: "O=C(CCCc1ccccn1)c1ccccc1"
  TGI: "> 100 µM"
- Compound: "C=C(CS(=O)(=O)c1ccccc1)[P+](c1ccccc1)(c1ccccc1)c1ccccc1"
  TGI: "65.6 µM"
- Compound: "O=C(O)C1CCCCN1C(=O)c1ccccc1 (centres undefined)"
  TGI: "> 100 µM"
- Compound: "O=C(Nc1ccc(Cl)cc1)/C(Cc1cccc[n+]1[O-])=N\\Nc1ccc([N+](=O)[O-])cc1[N+](=O)[O-]"
  TGI: "> 100 µM"
- Compound: "CN(C)C=Nc1cccc2cnccc12"
  TGI: "> 100 µM"
- Compound: "CC(=O)O[C@H]1CC[C@@]2(C)C(=CC[C@@H]3[C@@H]2CC[C@]2(C)C(=N/O)/C(=C/c4ccc([N+](=O)[O-])cc4)C[C@@H]32)C1"
  TGI: "62 µM"
- Compound: "O=[N+]([O-])c1cccc2nc3ccccc3c(NCCCN3CCOCC3)c12"
  TGI: "0.0434 µM"
- Compound: "NCC(NC(=O)OCc1ccccc1)C(=O)O (centres undefined)"
  TGI: "> 50 µM"
- Compound: "OC(COc1cccc2ccccc12)CN1CCN(c2ccccc2)CC1 (centres undefined)"
  TGI: "19 µM"
- Compound: "C[C@H]1CC(=O)C2=CCCC3(SCCCS3)[C@@H]2[C@H]1CO"
  TGI: "> 100 µM"
- Compound: "O=c1cc(-c2ccccc2)oc2ccc(Oc3nnnn3-c3ccccc3)cc12"
  TGI: "58.1 µM"
- Compound: "N#Cc1c(NC(=O)CN2CCOCC2)sc2c1CCCC2"
  TGI: "> 25 µM"
- Compound: "N#Cc1c(-c2ccccc2)cc(-c2ccccc2)n(CCCCC(=O)NO)c1=O"
  TGI: "7.57 µM"
- Compound: "CC1OC(OC2C(O)COC(OC3C(C)OC(OC4C(OC(=O)[C@]56CCC(C)(C)C[C@@H]5C5=CCC7[C@@]8(C)C[C@H](O)[C@H](OC9OC(CO)C(O)C(OC%10OC(CO)C(O)C(O)C%10O)C9O)[C@@](C)(CO)[C@@H]8CC[C@@]7(C)[C@]5(C)CC6)OCC(O)C4O)C(O)C3OC3OCC(O)C(O)C3O)C2O)C(O)C(O)C1O (some centres undefined)"
  TGI: "31.1 µM"
- Compound: "NCC1OC(OC2C(CO)OC(OC3C(O)C(N)CC(N)C3OC3OC(CO)C(O)C(O)C3N)C2O)C(N)C(O)C1O (centres undefined)"
  TGI: "> 50 µg/mL"
- Compound: "Cn1cc(C[C@@H](N)C(=O)O)c2ccccc21"
  TGI: "> 100 µM"
- Compound: "O=C1NC(=O)C(C(c2ccc(Cl)cc2)C2C(=O)NC(=O)NC2=O)C(=O)N1"
  TGI: "> 100 µM"
- Compound: "CC1=CCC[C@@H]2[C@@](C)(Cc3cc(O)ccc3O)[C@H](C)CC[C@@]12C"
  TGI: "15.2 µM"
- Compound: "CC(C)C(C(=O)N1CCC[C@@H]1C(=O)OCc1ccccc1)N(C)C(=O)C(C(C)C)N(C)C(=O)[C@H](Cc1ccccc1)N(C)C(=O)[C@H](NC(=O)OC(C)(C)C)C(C)C (some centres undefined) (Boc-[dV][NMeF][ξNMeV][ξNMeV][dP]-OBn)"
  TGI: "> 100 µM"
- Compound: "CCOc1ccc2c(ccc(/C=C\\c3cc(C)c4cccnc4c3O)[n+]2C)c1"
  TGI: "3.36 µM"
- Compound: "COc1ccc(/C=C/c2cc(N3CCOCC3)c3cc(F)c(F)cc3n2)cc1OC"
  TGI: "6.53 µM"
- Compound: "O=C(OCC12CC3CC(CC(C3)C1)C2)c1ccc(NCc2cc(O)ccc2O)cc1"
  TGI: "17.6 µM"
- Compound: "CN1C2C=C(c3ccccc3)CC1CC2 (centres undefined)"
  TGI: "> 100 µM"
- Compound: "CC1(C)CN=C(Nc2ccc(Cl)cc2)S1"
  TGI: "> 100 µM"
- Compound: "c1ccc2c(c1)nc1n2CSC1"
  TGI: "> 100 µM"
- Compound: "Cc1ccc(CS(=O)(=O)C/N=c2\\sc3ccccc3nc2/C=C(\\O)c2ccc(Cl)cc2)cc1"
  TGI: "> 10 µM"
- Compound: "O=c1c2cc(Br)cc(Br)c2[nH]c(=S)n1-c1ccccc1"
  TGI: "> 100 µM"
- Compound: "COc1cc(C(N)=O)cc(NC(=O)/C=C/c2ccccc2)c1OC"
  TGI: "> 100 µM"
- Compound: "NC(=O)C(NC=O)c1ccccc1 (centres undefined)"
  TGI: "> 100 µM"
- Compound: "O=S1(=O)CS(=O)(=O)OCCCO1"
  TGI: "> 100 µM"
- Compound: "COc1c2c(cc3c(CCc4ccccc4)cc(=O)oc13)CCC(C)(C)O2"
  TGI: "> 100 µM"
- Compound: "N#CC(C#N)=C(N)/C(C#N)=C/c1cc(O)c(O)c(Br)c1"
  TGI: "> 100 µM"
